# subject of test: T1, hIL10Rb-his (Sino Biological, Catalog#10945) (human, UniProt Q08334 20-220)
# T1 construct: Bought; also called Sino Biological cat#10945-H08H; not shown: C-terminal poly-His tag
# T1 sequence: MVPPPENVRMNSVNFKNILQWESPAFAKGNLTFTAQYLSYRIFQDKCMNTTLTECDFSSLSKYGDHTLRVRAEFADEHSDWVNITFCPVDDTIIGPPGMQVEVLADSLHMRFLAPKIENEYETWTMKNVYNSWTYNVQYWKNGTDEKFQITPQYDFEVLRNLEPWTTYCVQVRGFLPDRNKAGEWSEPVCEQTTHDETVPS
# test method notes: SPR; ratio of experimental to calculated Rmax
The reader will find reported Activity values listed item by item below.

binder	Activity, %
hIL10Ra_VHH17-hIL10Rb_VHH16 biotin (bispecific antibody, conjugated to biotin (site not stated)) QVQLQESGGGSVQAGGSLRLSCAASGYSNCSYDMTWYRQAPGKEREFVSAIHSDGSTRYADSVKGRFFISQDNAKNTVYLQMNSLKPEDTAMYYCKTDPLHCRAHGGSWYSVRANYWGQGTQVTVSSGGGSQVQLQESGGGSVEAGGSLRLSCAASGYTHSSYCMGWFRQAPGKEREGVAAIDVDGSTTYADSVKGRFTISKDNAKNTLYLQMNSLKPEDTGMYYCAAEFADCSSNYFLPPGAVRYWGQGTQVTVSS	34
hIL10Ra_VHH12-hIL10Rb_VHH27 biotin (bispecific antibody, conjugated to biotin (site not stated), also called IL10 VHH DR509 biotin; DR509) QVQLQESGGGSVQAGGSLRLSCTVSGYTYSSNCMGWFRQAPGKEREGVATIYTGGGNTYYADSVKGRFTISQDNAKNTVYLQMNNLKPEDTAMYYCAAEPLSRVYGGSCPTPTFDYWGQGTQVTVSSGGGSQVQLQESGGGSVQTGGSLRLSCAASGYTYLRGCMGWFRQAPGKEREGVAVMDVVGDRRSYIDSVKGRFTISRDNAANSVYLQMDNLKPEDTAMYYCTAGPNCVGWRSGLDYWGQGTQVTVSS	85
hIL10Rb_VHH1-hIL10Ra_VHH9-biotin (bispecific antibody, conjugated to biotin (site not stated)) QVQLQESGGGSVQAGGSLRLSCAASGYTYSSGCMGWFRQAPGKEREAVAAINSDGSTSYADSVKGRFTISKDNAKNTLYLQMNSLKPEDTAMYYCAAEPYCSGGYPRWSVAEFGYWGQGTQVTVSSGGGSQVQLQESGGGSVQAGGSLRLSCAVSGYAYSTYCMGWFRQAPGKEREGVAAIDSGGSTSYADSVKGRFTISKDNAKNTLYLRMNSLKPEDTAMYYCAAVPPPPDGGSCLFLGPEIKVSKADFRYWGQGTQVTVSS	25
hIL10Rb_VHH12-hIL10Ra_VHH8 biotin (bispecific antibody, conjugated to biotin (site not stated)) QVQLQESGGGSVQAGGSLRLSCAASGYTYSSYCMGWFRQAPGKEREGVAHIDSDGSTSYADSVKGRFTISKDNAKNTLYLQMNSLKPEDTAMYYCAADPIPGPGYCDGGPNKYWGQGTQVTVSSGGGSQVQLQESGGGSVQAGGSLRLSCAASGYTYSMYCMGWFRQAPGKEREGVAQINSDGSTSYADSVKGRFTISKDNAKNTLYLQMNSLKPEDTAMYYCAADSRVYGGSWYERLCGPYTYEYNYWGQGTQVTVSS	42
